- experimentalSystem: T1, human LSR with a V5/His tag fused to the C-terminal, on the LSR-expressing cell strain (human, UniProt Q86X29 1-649)
- T1 construct: In panning Lot 1 a mammalian LSR-expressing cell strain was used whose construct is not described; also called human LSR-expressing chicken cell strain; not shown: V5/His tag of vector pcDNA3.1-V5/His-TOPO
- T1 sequence: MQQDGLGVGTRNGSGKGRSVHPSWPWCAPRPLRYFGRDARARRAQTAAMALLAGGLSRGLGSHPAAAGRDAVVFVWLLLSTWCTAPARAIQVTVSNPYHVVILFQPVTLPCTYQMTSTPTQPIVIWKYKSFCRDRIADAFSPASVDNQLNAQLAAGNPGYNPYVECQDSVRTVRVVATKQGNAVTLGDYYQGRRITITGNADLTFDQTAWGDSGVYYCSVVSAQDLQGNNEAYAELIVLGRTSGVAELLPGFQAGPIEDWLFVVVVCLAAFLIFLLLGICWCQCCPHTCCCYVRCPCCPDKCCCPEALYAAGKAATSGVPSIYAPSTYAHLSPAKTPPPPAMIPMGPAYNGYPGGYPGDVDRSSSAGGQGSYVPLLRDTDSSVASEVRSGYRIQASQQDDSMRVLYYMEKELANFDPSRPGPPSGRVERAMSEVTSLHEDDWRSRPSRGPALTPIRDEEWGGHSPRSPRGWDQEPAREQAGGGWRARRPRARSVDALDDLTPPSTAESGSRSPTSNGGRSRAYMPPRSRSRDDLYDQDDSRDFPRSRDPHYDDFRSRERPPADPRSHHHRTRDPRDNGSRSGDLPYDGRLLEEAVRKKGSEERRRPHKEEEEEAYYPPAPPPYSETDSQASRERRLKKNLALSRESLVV
- experiment: cell panning of the scFv phage library on the LSR-expressing cell strain, reactivity confirmed by FACS, positive phage clones selected
- Description: The scFv phage antibody library was added to a non-LSR-expressing cell strain to carry out absorption operation of nonspecific phages, and then was reacted with a LSR-expressing cell strain. […] Phages from a library of which the reactivity had most increased were cloned, positive clones were selected, and then the sequences of six types of clones were determined (SEQ ID NOs: 1 to 6 and FIG. 9). […]
measurementName: binding result

[[record]]
binder = "SEQ ID NO 3 (scFv phage antibody clone, anti-LSR antibody 26-2 sequence) (scFv, the phage coat protein fusion is not described; also called 26-2 scFv) scFv: AVTLDESGGGLQTPGGGLSLVCKGSGFTFSNYEMQWVRQAPGKGLEWVAGISGAGSTTRYGSAVQGRATISRDNGQSTVRLQLNNLRAEDTGTYYCARGSNIDGWGHGTEVIVSTGGGGSGGGGSGGGGSDVALTQPSSVSANPGETVKITCSGGGRYAESYYYSWFQQKSPGSAPVTVIYWNDKRPSNIPSRFSGSLSGSTNTLTITGVRAEDEAVYYCGAYEDSSAGFGAGTTLTV"
reportedmeasurement = "binds"

